I'd appreciate it if you could supply MIC values for the items below.
Test system: Streptococcus pneumoniae
Assay: In vitro minimum inhibitory concentration against Streptococcus pneumoniae UC41
Format: functional
Give bare numbers, in µg/mL.

# molecule, MIC, µg/mL
data = [
    ("CNCCN(C)C(=O)[C@H]1NC(=O)[C@H]2NC(=O)[C@H](NC(=O)[C@@H]3NC(=O)[C@H]4NC(=O)[C@@H](Cc5ccc(c(Cl)c5)Oc5cc3cc(c5O)Oc3ccc(cc3Cl)[C@H]2O)NC(=O)[C@H](N)c2ccc(O)c(c2)Oc2cc(O)cc4c2)c2ccc(O)c(c2)-c2c(O)cc(O)cc21", 0.12),
    ("CCNCCCNC(=O)[C@H]1NC(=O)[C@H]2NC(=O)[C@H](NC(=O)[C@@H]3NC(=O)[C@H]4NC(=O)[C@@H](Cc5ccc(c(Cl)c5)Oc5cc3cc(c5O[C@@H]3O[C@@H](CO)[C@@H](O)[C@H](O)[C@@H]3NC(=O)CCCCCCC(C)C)Oc3ccc(cc3Cl)[C@H]2O[C@@H]2O[C@@H](CO)[C@@H](O)[C@H](O)[C@@H]2NC(C)=O)NC(=O)[C@H](N)c2ccc(O)c(c2)Oc2cc(O)cc4c2)c2ccc(O)c(c2)-c2c(O[C@H]3O[C@H](CO)[C@@H](O)[C@@H](O)[C@@H]3O)cc(O)cc21", 0.12),
]

// each molecule listed below needs its MIC
1. CC(=O)N[C@@H]1[C@H](O[C@@H]2c3ccc(c(Cl)c3)Oc3cc4cc(c3O[C@@H]3O[C@@H](CO)[C@@H](O)[C@H](O)[C@@H]3NC(=O)CCCCCCC(C)C)Oc3ccc(cc3Cl)C[C@H]3NC(=O)[C@H](N)c5ccc(O)c(c5)Oc5cc(O)cc(c5)[C@H](NC3=O)C(=O)N[C@H]4C(=O)N[C@H]3C(=O)N[C@@H]2C(=O)N[C@H](C(=O)NCCCCCCN)c2cc(O)cc(O[C@H]4O[C@H](CO)[C@@H](O)[C@@H](O)[C@@H]4O)c2-c2cc3ccc2O)O[C@@H](CO)[C@@H](O)[C@@H]1O
2. CCN1CCCC1CNC(=O)[C@H]1NC(=O)[C@H]2NC(=O)[C@H](NC(=O)[C@@H]3NC(=O)[C@H]4NC(=O)[C@@H](Cc5ccc(c(Cl)c5)Oc5cc3cc(c5O)Oc3ccc(cc3Cl)[C@H]2O)NC(=O)[C@H](N)c2ccc(O)c(c2)Oc2cc(O)cc4c2)c2ccc(O)c(c2)-c2c(O)cc(O)cc21 (stereo not given in full)
3. CNCCCNC(=O)[C@H]1NC(=O)[C@H]2NC(=O)[C@H](NC(=O)[C@@H]3NC(=O)[C@H]4NC(=O)[C@@H](Cc5ccc(c(Cl)c5)Oc5cc3cc(c5O[C@@H]3O[C@@H](CO)[C@@H](O)[C@H](O)[C@@H]3NC(=O)CCCCCCC(C)C)Oc3ccc(cc3Cl)[C@H]2O[C@@H]2O[C@@H](CO)[C@@H](O)[C@H](O)[C@@H]2NC(C)=O)NC(=O)[C@H](N)c2ccc(O)c(c2)Oc2cc(O)cc4c2)c2ccc(O)c(c2)-c2c(O[C@H]3O[C@H](CO)[C@@H](O)[C@@H](O)[C@@H]3O)cc(O)cc21

Reply:
1. 0.12
2. 0.06
3. 0.12
